Just for reference, the supplement of paper PMC11061612 is where these values come from.

Tested on: C-4-I (Cervical Carcinoma);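 further: after 72 h of two-drug dosing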
Experiment: Bliss excess, mean over the matrix (fraction); higher = more synergy
Measured metric: Bliss excess

Look over these answered cases.
| Compound | Bliss excess |
| --- | --- |
| COc1nnc2ccc(N3CCC(c4ccc(OCCN5CCN(C)C(=O)[C@H]5C)cc4)CC3)nn12 [AZD5153] + CC1(C)CCC(CN2CCN(c3ccc(C(=O)NS(=O)(=O)c4ccc(NCC5CCOCC5)c([N+](=O)[O-])c4)c(Oc4cnc5[nH]ccc5c4)c3)CC2)=C(c2ccc(Cl)cc2)C1 [Venetoclax] (first compound max 1 µM, 7x7, partner max 1 µM) | -0.05 |
| C[C@@H](c1ccc2nccn2c1)n1nnc2ncc(-c3cnn(C)c3)nc21 [Savolitinib] + CN(CC[C@H](CSC1=CC=CC=C1)NC2=C(C=C(C=C2)S(=O)(=O)NC(=O)C3=CC=C(C=C3)N4CCC(CC4)[C@H](C5=CC=CC=C5C6=CC=C(C=C6)Cl)O)S(=O)(=O)C(F)(F)F)CCO [AZD4320] (first compound max 1 µM, 7x7, partner max 1 µM) | -0.0399 |
| CC1(C)CCC(CN2CCN(c3ccc(C(=O)NS(=O)(=O)c4ccc(NCC5CCOCC5)c([N+](=O)[O-])c4)c(Oc4cnc5[nH]ccc5c4)c3)CC2)=C(c2ccc(Cl)cc2)C1 [Venetoclax] + CN(C)CCCOc1ccc(-c2ccc3ncc4c(c3c2)n(C2CCOCC2)c(=O)n4C)cn1 [AZD0156] (first compound max 1 µM, 7x7, partner max 1 µM) | 0.0229 |

API: the following record is the query input.
Exercise: Form field: reported Bliss excess of COc1cccc(OCCCN)c1-c1cc(Nc2cnc(C#N)cn2)n[nH]1 [Prexasertib] + CN(C)CCCOc1ccc(-c2ccc3ncc4c(c3c2)n(C2CCOCC2)c(=O)n4C)cn1 [AZD0156] (first compound max 1 µM, 7x7, partner max 1 µM)
Key: -0.0273
